EXPERIMENTAL SYSTEM: Aminopeptidase N (Plasmodium falciparum (isolate 3D7))
RUN DESCRIPTION: malaria alanyl aminopeptidase activity blockers – biochemical, fluorogenic H-Leu-NHMec substrate, 1536-well (AID 1445);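 further: plate controls were DMSO full reaction for no effect and no enzyme background for full effect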
ASSAY SETUP: recombinant M1AAP, H-Leu-NHMec fluorogenic kinetic assay; at 30 µM, hits give high values unless noted
Hit rate of the full screen: of about 220,000 compounds, about 910 (0.41%) were called active. The full list was thinned out, with actives kept by preference. Entries with a potency or affinity are not part of this list.
QUANTITY KIND: inhibition (%)
Form entry: value (%) — number only.

Exercise: Dear colleague, I am looking for the recorded inhibition of the following compound: O=C(NCc1ccccc1Cl)c1ccc(CSc2nc3ccncc3[nH]2)cc1
Key: 1.57

Exercise: Suppose we examine the compound O=C(CCC(=O)N(CC(=O)NC1CCCC1)Cc1ccc2c(c1)OCO2)Nc1ccccn1 ; what inhibition value has been reported?
Key: 26.2

Exercise: What measured inhibition goes with CC[C@@H]1CC=C[C@H]2[C@H]1C(=O)N(Cc1ccccc1)[C@H]2c1ccc(OC)c(Cl)c1 ?
Key: 4.5

Exercise: Entry CSc1ncc(Cl)c(C(=O)Nc2ccc(NC(C)=O)cc2)n1 : reported inhibition = ?
Key: 1.65

Exercise: Field request: inhibition | item: CSc1ncc(Cl)c(C(=O)Nc2cccc(C)c2)n1
Key: 6.29
